Test system: Adenosine A1 receptor
test: A1-agonist stimulated [35S]GTPγS binding to G proteins
Type: biochemical
measurement-context: Table 1, compounds of Example 2; normalized to the full agonist CPA
parameter-measured: GTPγS (%)

Past entries and their recorded results:
| molecule | target-system | parameter-measured | display-unit | experimental-value |
| --- | --- | --- | --- | --- |
| O[C@@H]1[C@H](O)[C@@H](COC(=S)N2CCCC2)O[C@H]1n1cnc2c(N[C@@H]3CCOC3)ncnc21 | Adenosine A1 receptor | GTPγS | % | 77 |
| O[C@@H]1[C@H](O)[C@@H](CNC(=S)NC2CCCC2)O[C@H]1n1cnc2c(N[C@@H]3CCOC3)ncnc21 | Adenosine A1 receptor | GTPγS | % | 95 |
| O=C(O)CCNC(=O)OC[C@H]1O[C@@H](n2cnc3c(N[C@@H]4CCOC4)ncnc32)[C@H](O)[C@@H]1O | Adenosine A1 receptor | GTPγS | % | 59 |
| O=C(NC1CC1c1ccccc1)OC[C@H]1O[C@@H](n2cnc3c(N[C@@H]4CCOC4)ncnc32)[C@H](O)[C@@H]1O (some centres unmarked) | Adenosine A1 receptor | GTPγS | % | −6 |
| O=C(O)CNC(=O)OC[C@H]1O[C@@H](n2cnc3c(N[C@@H]4CCOC4)ncnc32)[C@H](O)[C@@H]1O | Adenosine A1 receptor | GTPγS | % | 76 |
| CCCCNC(=S)OC[C@H]1O[C@@H](n2cnc3c(N[C@@H]4CCOC4)ncnc32)[C@H](O)[C@@H]1O | Adenosine A1 receptor | GTPγS | % | 70 |

(P) O[C@@H]1[C@H](O)[C@@H](COC(=S)N2CCCCC2)O[C@H]1n1cnc2c(N[C@@H]3CCOC3)ncnc21
(Q) O=C(N[C@@H]1CCC[C@H]1O)OC[C@H]1O[C@@H](n2cnc3c(N[C@@H]4CCOC4)ncnc32)[C@H](O)[C@@H]1O
q: Thinking about recorded GTPγS values, which is higher, P or Q ? Please respond with the label that marks your chosen entry.
a: P

###

Test system: Adenosine A1 receptor
test: A1-agonist stimulated [35S]GTPγS binding to G proteins
Assay type: biochemical
measurement-context: Table 1, compounds of Example 2; normalized to the full agonist CPA
parameter-measured: GTPγS (%)

Some solved cases for reference:
| compound | display-unit | experimental-value |
| --- | --- | --- |
| O=c1occn1C[C@H]1OC(n2cnc3c(N[C@@H]4CCOC4)ncnc32)[C@H](O)[C@@H]1O (stereo partly drawn) | % | 80 |
| CC(C)NC(=O)OC[C@H]1O[C@@H](n2cnc3c(N[C@@H]4CCOC4)ncnc32)[C@H](O)[C@@H]1O | % | 91 |

(P) C=CCNC(=S)OC[C@H]1O[C@@H](n2cnc3c(N[C@@H]4CCOC4)ncnc32)[C@H](O)[C@@H]1O
(Q) O[C@@H]1[C@H](O)[C@@H](COC(=S)N[C@H]2CCC[C@@H]2OCc2ccccc2)O[C@H]1n1cnc2c(N[C@@H]3CCOC3)ncnc21
q: Please tell me which of the two, P or Q , has the higher reported GTPγS value. Give the chosen item's label as your response.
a: P
(P: 77%, Q: 52%)

###

Tested on: Adenosine A1 receptor
test: A1-agonist stimulated [35S]GTPγS binding to G proteins
Format: biochemical
measurement-context: Table 1, compounds of Example 2; normalized to the full agonist CPA
parameter-measured: GTPγS (%)

| record-smiles | target-system | display-unit | GTPγS |
| --- | --- | --- | --- |
| O=C(NC1CCC1)OC[C@H]1O[C@@H](n2cnc3c(N[C@@H]4CCOC4)ncnc32)[C@H](O)[C@@H]1O | Adenosine A1 receptor | % | 67 |

(I) C=CCNC(=O)OC[C@H]1O[C@@H](n2cnc3c(N[C@@H]4CCOC4)ncnc32)[C@H](O)[C@@H]1O
(II) CCCNC(=S)OC[C@H]1O[C@@H](n2cnc3c(N[C@@H]4CCOC4)ncnc32)[C@H](O)[C@@H]1O
q: Of I versus II , which is the one with smaller reported GTPγS? Answer by stating the label of the chosen item.
a: I
(I: 48%, II: 89%)

(1) CN(C)C(=S)OC[C@H]1O[C@@H](n2cnc3c(N[C@@H]4CCOC4)ncnc32)[C@H](O)[C@@H]1O
(2) O=C(NC1CCCC1)OC[C@H]1O[C@@H](n2cnc3c(N[C@@H]4CCOC4)nc(Cl)nc32)[C@H](O)[C@@H]1O
q: Which value of GTPγS is smaller, the one for 1 or the one for 2 ? Output the label that corresponds to your choice.
a: 2
